System: KMM-1 cells
ASSAY: CellTiter-Glo in vitro cell proliferation assay, Example 8
Assay type: cell-based, Human
CONDITION_SUMMARY: KMM-1, HMCL-A; read-out: Mean IC50
Catalogue of pIC50 readings, one per entry.
Scale: pIC50 equals -log10([C]), with [C] in mol/L.

C=C(C)C1CC=C(C(CC2=NCCc3c2[nH]c2cc(OC)ccc32)CC2=NCCc3c2[nH]c2cc(OC)ccc32)CC1 (stereo not drawn) [compound 28]    5.19
COc1ccc2c3c([nH]c2c1)C(CC(CC1=NCCc2c1[nH]c1cc(OC)ccc21)c1cc(O)c(OC)c(OC)c1)=NCC3 [compound 11]    4.92

Exercise: Please report the recorded pIC50 for COc1ccc2c3c([nH]c2c1)C(CC(CC1=NCCc2c1[nH]c1cc(OC)ccc21)c1ccc(F)c(Oc2ccccc2)c1)=NCC3 [compound 19] .
Key: 4.59

====

System: FaDu cells
ASSAY: CellTiter-Glo in vitro cell proliferation assay, Example 8
Type: cell-based, Human
CONDITION_SUMMARY: Homo sapiens, Squamous, 72 hours, read-out: Mean IC50
READOUT_TYPE: IC50

Answered examples (2):
COc1ccc2c(c1)=NC1=C(CCc3ccc(O)c(OC)c3)NCCC=21    > 100000 nM
COc1ccc2c3c([nH]c2c1)C(CC(CC1=NCCc2c1[nH]c1cc(OC)ccc21)c1ccccc1)=NCC3    2050 nM

Let us move to another entry and its IC50.
Exercise: Please report the recorded IC50 for COc1ccc2c3c([nH]c2c1)C(CC(CC1=NCCc2c1[nH]c1cc(OC)ccc21)c1ccc(O)c(OC)c1)=NCC3 .
Key: 1980 nM

====

Catalogue of pIC50 readings, one per entry.
Tested on: L363 cells
ASSAY: CellTiter-Glo in vitro cell proliferation assay, Example 8
Format: cell-based, Human
CONDITION_SUMMARY: L363, PCL/MM; read-out: Mean IC50
Scale: pIC50 equals -log10([C]), with [C] in mol/L.

Answered examples (3):
COc1ccc2c3c([nH]c2c1)C(CC(CC1=NCCc2c1[nH]c1cc(OC)ccc21)c1ccc(OC)c(OC)c1)=NCC3    5.20
C=C(C)C1CC=C(C(CC2=NCCc3c2[nH]c2cc(OC)ccc32)CC2=NCCc3c2[nH]c2cc(OC)ccc32)CC1 (stereo not shown)    5.32
COc1ccc2c3c([nH]c2c1)C(CC(CC1=NCCc2c1[nH]c1cc(OC)ccc21)c1ccc(OC)c(O)c1)=NCC3    4.93

Let us move to another entry and its pIC50.
Exercise: Please report the recorded pIC50 for COc1ccc2c3c([nH]c2c1)C(CC(CC1=NCCc2c1[nH]c1cc(OC)ccc21)c1cccc(F)c1)=NCC3 .
Key: 5.41

====

Test system: A2780 cells
ASSAY: CellTiter-Glo in vitro cell proliferation assay, Example 8
Assay type: cell-based, Human
CONDITION_SUMMARY: A2780, Ovarian; read-out: Mean IC50
READOUT_TYPE: pIC50
Scale: pIC50 equals -log10([C]), with [C] in mol/L.

Exercise: Please report the recorded pIC50 for COc1ccc2c3c([nH]c2c1)C(CC(CC1=NCCc2c1[nH]c1cc(OC)ccc21)c1cccc(-c2ccccc2)c1)=NCC3 .
Key: 4.58

Exercise: Please report the recorded pIC50 for COc1ccc2c3c([nH]c2c1)C(CC(CC1=NCCc2c1[nH]c1cc(OC)ccc21)c1ccc(OC)c(O)c1I)=NCC3 .
Key: 4.67

Exercise: Please report the recorded pIC50 for COc1ccc(C(CC2=NCCc3c2[nH]c2cc(OC)ccc32)CC2=NCCc3c2[nH]c2cc(OC)ccc32)c(O)c1 .
Key: 4.73

Exercise: Please report the recorded pIC50 for COc1ccc2c3c([nH]c2c1)C(CC(CC1=NCCc2c1[nH]c1cc(OC)ccc21)c1cc(F)cc(F)c1)=NCC3 .
Key: 5.04

====

Catalogue of IC50 readings, one per entry.
Tested on: H1975 (EGFR mut) cells
ASSAY: CellTiter-Glo in vitro cell proliferation assay, Example 8
Type: cell-based, Human
CONDITION_SUMMARY: NSCLC, read-out: Mean IC50
Numeric answer only, unit µM assumed.

Answered examples (6):
COc1ccc2c3c([nH]c2c1)C(CC(CC1=NCCc2c1[nH]c1cc(OC)ccc21)c1ccc(OC)c(OC)c1)=NCC3    14.1
COc1ccc2c3c([nH]c2c1)C(CC(CC1=NCCc2c1[nH]c1cc(OC)ccc21)c1cccc(F)c1)=NCC3    6.41
COc1ccc2c3c([nH]c2c1)C(CC(CC1=NCCc2c1[nH]c1cc(OC)ccc21)c1cc(OC)c(O)c([N+](=O)[O-])c1)=NCC3    28.1
COc1ccc2c3c([nH]c2c1)C(CC(CC1=NCCc2c1[nH]c1cc(OC)ccc21)c1ccc(OC)c(O)c1Br)=NCC3    14
COc1cccc(C(CC2=NCCc3c2[nH]c2cc(OC)ccc32)CC2=NCCc3c2[nH]c2cc(OC)ccc32)c1    12.1
COc1ccc2c3c([nH]c2c1)C(CC(CC1=NCCc2c1[nH]c1cc(OC)ccc21)c1cc(Cl)c(O)c(OC)c1)=NCC3    54.6

Let us move to another entry and its IC50.
Exercise: Please report the recorded IC50 for COc1ccc2c3c([nH]c2c1)C(CC(CC1=NCCc2c1[nH]c1cc(OC)ccc21)c1ccc(F)c(Oc2ccccc2)c1)=NCC3 .
Key: 55

====

Test system: Jeko-1 Lenalidomide resistant cells
ASSAY: CellTiter-Glo in vitro cell proliferation assay, Example 8
Format: cell-based
CONDITION_SUMMARY: Homo sapiens, Mantle Cell Lymphoma, 72 hours
READOUT_TYPE: IC50 (µM)
Numeric answer only, unit µM assumed.

Answered examples (2):
COc1ccc2c3c([nH]c2c1)C(CC(CC1=NCCc2c1[nH]c1cc(OC)ccc21)c1ccc(O)c(OC)c1)=NCC3    6.19
COc1ccc2c3c([nH]c2c1)C(CC(CC1=NCCc2c1[nH]c1cc(OC)ccc21)c1ccccc1)=NCC3    5.07

Let us move to another entry and its IC50.
Exercise: Please report the recorded IC50 for COc1ccc2c(c1)=NC1=C(CCc3ccc(O)c(OC)c3)NCCC=21 .
Key: 79.4

====

Catalogue of IC50 readings, one per entry.
Test system: ASPC-1 cells
ASSAY: CellTiter-Glo in vitro cell proliferation assay, Example 8
Assay type: cell-based, Human
CONDITION_SUMMARY: Homo sapiens, ASPC1; ASPC-1, Pancreatic; read-out: Mean IC50
Numeric answer only, unit µM assumed.

COc1cc(C2CC3(CC4(NCCc5sccc54)C2C2=NCCc4sccc42)NCCc2sccc23)ccc1O (centres unmarked)    20.2

Let us move to another entry and its IC50.
Exercise: Please report the recorded IC50 for COc1ccc2c3c([nH]c2c1)C(CC(CC1=NCCc2c1[nH]c1cc(OC)ccc21)c1c(F)c(F)c(F)c(F)c1F)=NCC3 .
Key: 32.7

====

Tested on: A2780 cells
ASSAY: CellTiter-Glo in vitro cell proliferation assay, Example 8
Format: cell-based, Human
CONDITION_SUMMARY: Homo sapiens; A2780, Ovarian; read-out: Mean IC50
Catalogue of pIC50 readings, one per entry.
Scale: pIC50 equals -log10([C]), with [C] in mol/L.

COc1cc(C2CC3(CC4(NCCc5sccc54)C2C2=NCCc4sccc42)NCCc2sccc23)ccc1O (centres unmarked)    4.80

Let us move to another entry and its pIC50.
Exercise: Please report the recorded pIC50 for COc1ccc2c3c([nH]c2c1)C(CC(CC1=NCCc2c1[nH]c1cc(OC)ccc21)c1c(F)c(F)c(F)c(F)c1F)=NCC3 .
Key: 4.97

====

Tested on: A498 cells
ASSAY: CellTiter-Glo in vitro cell proliferation assay, Example 8
Format: cell-based, Human
CONDITION_SUMMARY: A498, RCC; read-out: Mean IC50
READOUT_TYPE: pIC50
Scale: pIC50 equals -log10([C]), with [C] in mol/L.

Answered examples (8):
COc1ccc2c3c([nH]c2c1)C(CC(CC1=NCCc2c1[nH]c1cc(OC)ccc21)c1cc(F)c(F)cc1F)=NCC3    4.67
COc1ccc2c3c([nH]c2c1)C(CC(CC1=NCCc2c1[nH]c1cc(OC)ccc21)C1CCCCC1)=NCC3    4.77
COc1cccc(C(CC2=NCCc3c2[nH]c2cc(OC)ccc32)CC2=NCCc3c2[nH]c2cc(OC)ccc32)c1    4.82
COc1ccc2c3c([nH]c2c1)C(CC(CC1=NCCc2c1[nH]c1cc(OC)ccc21)c1ccc(OC)c(O)c1I)=NCC3    4.26
COc1ccc2c3c([nH]c2c1)C(CC(CC1=NCCc2c1[nH]c1cc(OC)ccc21)c1cc(Br)c(O)c(OC)c1)=NCC3    4.39
COc1ccc(C(CC2=NCCc3c2[nH]c2cc(OC)ccc32)CC2=NCCc3c2[nH]c2cc(OC)ccc32)c(O)c1    4.10
C=C(C)C1CC=C(C(CC2=NCCc3c2[nH]c2cc(OC)ccc32)CC2=NCCc3c2[nH]c2cc(OC)ccc32)CC1 (centres unmarked)    4.79
COc1ccc2c3c([nH]c2c1)C(CC(CC1=NCCc2c1[nH]c1cc(OC)ccc21)c1ccc(Cl)cc1)=NCC3    4.93

Exercise: Please report the recorded pIC50 for COc1ccc2c3c([nH]c2c1)C(CC(CC1=NCCc2c1[nH]c1cc(OC)ccc21)c1ccc(C(C)C)cc1)=NCC3 .
Key: 4.37

Exercise: Please report the recorded pIC50 for COc1ccc2c3c([nH]c2c1)C(CC(CC1=NCCc2c1[nH]c1cc(OC)ccc21)c1ccccc1OC)=NCC3 .
Key: 5.00

Exercise: Please report the recorded pIC50 for CCOc1cc(C(CC2=NCCc3c2[nH]c2cc(OC)ccc32)CC2=NCCc3c2[nH]c2cc(OC)ccc32)ccc1O .
Key: 4.78

Exercise: Please report the recorded pIC50 for COc1ccc2c3c([nH]c2c1)C(CC(CC1=NCCc2c1[nH]c1cc(OC)ccc21)c1cccc(-c2ccccc2)c1)=NCC3 .
Key: 4.03

Exercise: Please report the recorded pIC50 for COc1ccc2c3c([nH]c2c1)C(CC(CC1=NCCc2c1[nH]c1cc(OC)ccc21)c1ccc(OC)c(Oc2ccccc2)c1)=NCC3 .
Key: 4.10

Exercise: Please report the recorded pIC50 for COc1ccc2c3c([nH]c2c1)C(CC(CC1=NCCc2c1[nH]c1cc(OC)ccc21)c1cc(F)cc(F)c1)=NCC3 .
Key: 4.67
